Molecular target: T1, human VEGF (hVEGF) (human, UniProt P15692 181-395)
T1 construct: also called VEGF-A
T1 sequence: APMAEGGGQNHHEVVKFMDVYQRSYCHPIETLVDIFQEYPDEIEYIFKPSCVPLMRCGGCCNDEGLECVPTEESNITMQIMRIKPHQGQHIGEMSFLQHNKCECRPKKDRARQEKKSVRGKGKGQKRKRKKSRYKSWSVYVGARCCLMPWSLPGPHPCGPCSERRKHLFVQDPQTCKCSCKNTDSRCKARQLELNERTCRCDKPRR
Experiment: SPR single-cycle;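 note: fab variants injected over hVEGF immobilized on a CM5 chip (Biacore T200), threefold dilution series from 0.02 to 50 nM, kinetics fitted with a 1:1 Langmuir model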
Record form. Attribute: log10 Kd. Fill in for each entry.
Hi team, quick reminder: these entries are log10 of Kd (nM).

Q: What value of measured log10 Kd is listed for G6.31 LC-Y92E (Fab, V domains shown, Fab) VH: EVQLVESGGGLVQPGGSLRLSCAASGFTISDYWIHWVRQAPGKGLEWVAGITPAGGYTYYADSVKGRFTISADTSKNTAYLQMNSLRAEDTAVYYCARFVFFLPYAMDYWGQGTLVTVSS VL: DIQMTQSPSSLSASVGDRVTITCRASQDVSTAVAWYQQKPGKAPKLLIYSASFLYSGVPSRFSGSGSGTDFTLTISSLQPEDFATYYCQQGEGNPFTFGQGTKVEIK ?
Result: 0.32

Q: What value of measured log10 Kd is listed for G6.31 HC-K64E (Fab, name in Kabat numbering, V domains shown, Fab) VH: EVQLVESGGGLVQPGGSLRLSCAASGFTISDYWIHWVRQAPGKGLEWVAGITPAGGYTYYADSVEGRFTISADTSKNTAYLQMNSLRAEDTAVYYCARFVFFLPYAMDYWGQGTLVTVSS VL: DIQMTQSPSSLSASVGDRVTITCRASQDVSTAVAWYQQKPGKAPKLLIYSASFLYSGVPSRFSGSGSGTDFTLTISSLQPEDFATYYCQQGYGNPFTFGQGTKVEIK ?
Result: -0.15

Q: What value of measured log10 Kd is listed for G6.31 LC-Y55E (Fab, V domains shown, Fab) VH: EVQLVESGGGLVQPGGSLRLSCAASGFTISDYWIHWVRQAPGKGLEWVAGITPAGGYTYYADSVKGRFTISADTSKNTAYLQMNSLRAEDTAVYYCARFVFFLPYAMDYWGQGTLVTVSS VL: DIQMTQSPSSLSASVGDRVTITCRASQDVSTAVAWYQQKPGKAPKLLIYSASFLESGVPSRFSGSGSGTDFTLTISSLQPEDFATYYCQQGYGNPFTFGQGTKVEIK ?
Result: 1.07

Q: What value of measured log10 Kd is listed for G6.31 LC-T72R (Fab, V domains shown, Fab) VH: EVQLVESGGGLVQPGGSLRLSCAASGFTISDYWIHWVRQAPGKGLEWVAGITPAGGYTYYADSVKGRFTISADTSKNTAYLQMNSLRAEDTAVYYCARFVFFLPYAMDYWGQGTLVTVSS VL: DIQMTQSPSSLSASVGDRVTITCRASQDVSTAVAWYQQKPGKAPKLLIYSASFLYSGVPSRFSGSGSGTDFRLTISSLQPEDFATYYCQQGYGNPFTFGQGTKVEIK ?
Result: 0.18

Q: What value of measured log10 Kd is listed for G6.31 LC-Q27E (Fab, V domains shown, Fab) VH: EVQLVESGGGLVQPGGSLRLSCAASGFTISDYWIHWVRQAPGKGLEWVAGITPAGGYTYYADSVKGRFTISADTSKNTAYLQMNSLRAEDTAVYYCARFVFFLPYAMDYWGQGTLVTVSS VL: DIQMTQSPSSLSASVGDRVTITCRASEDVSTAVAWYQQKPGKAPKLLIYSASFLYSGVPSRFSGSGSGTDFTLTISSLQPEDFATYYCQQGYGNPFTFGQGTKVEIK ?
Result: 0.29

Q: What value of measured log10 Kd is listed for G6.31 HC-T77K (Fab, name in Kabat numbering, V domains shown, Fab) VH: EVQLVESGGGLVQPGGSLRLSCAASGFTISDYWIHWVRQAPGKGLEWVAGITPAGGYTYYADSVKGRFTISADTSKNKAYLQMNSLRAEDTAVYYCARFVFFLPYAMDYWGQGTLVTVSS VL: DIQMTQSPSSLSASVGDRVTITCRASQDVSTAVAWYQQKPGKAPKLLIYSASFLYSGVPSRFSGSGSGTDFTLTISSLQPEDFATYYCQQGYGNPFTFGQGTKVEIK ?
Result: -0.65
